- assayed-system: T1, Cynomolgous TSLPR (on HEK293 cells) (Cynomolgous monkey)
- T1 construct: also called Cyno-TSLPR-HEK293; HEK-Cyno-TSLPR
- T1 chain: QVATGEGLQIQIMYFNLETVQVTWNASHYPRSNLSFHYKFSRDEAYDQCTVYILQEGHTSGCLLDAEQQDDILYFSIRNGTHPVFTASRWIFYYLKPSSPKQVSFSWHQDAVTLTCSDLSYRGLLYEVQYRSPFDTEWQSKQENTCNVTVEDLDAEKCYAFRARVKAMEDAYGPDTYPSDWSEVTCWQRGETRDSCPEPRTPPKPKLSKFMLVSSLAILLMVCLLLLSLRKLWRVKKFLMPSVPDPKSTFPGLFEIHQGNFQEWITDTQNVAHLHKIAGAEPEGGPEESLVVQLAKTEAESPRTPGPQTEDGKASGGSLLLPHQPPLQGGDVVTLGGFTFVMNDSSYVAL
- protocol-details: FACS on HEK293 cells transiently transfected with Cynomolgous TSLPR
- Description: BA/F3-TSLPR/IL7Rα or Cyno-TSLPR-HEK293 cells were starved from TSLP overnight, harvested by centrifugation, washed once in PBS and re-suspended in FACS buffer (PBS/5% FCS) at 10⁶/ml. 100 μl of cell suspension were incubated in a 96-well round-bottom plate well together with 100 μl of anti-TSLPR antibody solution for 45 minutes on ice. […] After three further washes cells were re-suspended in 200 μl of FACS buffer and measured on a FACSCanto™ flow cytometer (10,000 cells, flow rate 3).
In this section we review reported EC50 values for a set of binders.

binder="TSLPR-012 (hamster) (antibody, V domains shown, Parent Armenian hamster monoclonal antibody; the hamster constant regions are not; also called TSLP-012; hamster antibody TSLPR-012) VH: QIQLQESGPGLVKPSQSLSLTCSVTGFSITTSGYYWTWIRQFPGKKLEWMGYIGYNSKTYYNPSLKSRISITRDTSKNQFLLHLNSVTTEDTATYYCARSLYGGYKDAFDSWGQGTLVTVSS VL: DVVLTQTPATLSAIPGERVTMTCKASQSIGTSLHWYQHRPNETPRLLIKFASRSITGIPSRFSGSGSGTDFTLGINNLEAEDFAIYYCQQSPGFPPTFGSGTKLEINR" assay_metric=EC50 measured_result="0.0118 mg/L"

With those in mind, consider the next binder.
State, in one line, measured EC50 of TSLPR-012_189, CDR grafted (antibody, V domains shown, Humanized (CDR grafted) variant of hamster TSLPR-012; human kappa and human IgG1 or IgG4(S228P,L235E) appear only as embodiments) VH: QVQLVESGGGLVKPGGSLRLSCAASGFSITTSGYYWTWIRQFPGKGLEWMGYIGYNSKTYYNPALKSRITISRDNAKNSLYLQMNSLRAEDTAVYYCARSLYGGYKDAFDSWGQGTLVTVSS VL: EIVMTQSPATLSVSPGERATLSCRASQSIGTSLHWYQQKPGQAPRLLIKFASRSITGIPARFSGSGSGTEFTLTISSLQSEDFAVYYCQQSPGFPPTFGQGTKLEIKR
0.0103 mg/L
